Overview of recorded activation for various compounds
Biological target: Trace amine-associated receptor 1 (Homo sapiens)
Test: activators of TAAR1 calcium signal, triplicate retest – Fluo-8 calcium fluorescence, CHO RD-HGA16 cells, confirmation (AID 651783);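 further: promiscuous G-alpha-16 overexpression reroutes TAAR1 signalling from cAMP to calcium; peak fluorescence divided by basal pre-compound fluorescence per well; 0% = DMSO wells and 100% = phenethylamine at EC100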
Details: CHO RD-HGA16 TAAR1, Fluo-8 calcium fluorescence; at 3 µM; stronger effect = higher value
The whole screen tested about 2,400 compounds, of which about 2,000 (83%) were called active. So high a share suggests a set chosen from earlier hits. The list is a sample of the results.

COMPOUND: CC(Cc1ccccc1)NC=O (centres undefined)
UNIT OF MEASURE: %
activation: 82.1
--
COMPOUND: NCC(O)c1ccc(O)cc1 (centres undefined)
UNIT OF MEASURE: %
activation: 88.3
--
COMPOUND: Cc1cccc(N2C(=O)NC(=O)/C(=C\c3cnn(-c4ccccc4)c3)C2=O)c1
UNIT OF MEASURE: %
activation: 46.7
--
COMPOUND: O=C1NC(=O)N(Cc2ccco2)C(=O)/C1=C\c1ccc(-c2ccc(F)cc2)o1
UNIT OF MEASURE: %
activation: 52.5

Data credit: PubChem BioAssay AID651783
